GI50: recorded values
- Assay procedure: Cytotoxicity against human THP1 cells assessed as growth inhibition by MTT assay
- Type: cell-based
- Conditions: THP-1 cells
State just the number; it will be interpreted in mg/L.

N#Cc1c(-c2ccc(O)cc2)[nH]c(=S)[nH]c1=O: 93

Task: Provide only the value of recorded GI50 for COc1cc(-c2nc(SCCCn3cnc4sc5c(c4c3=O)CCCC5)n(CCCn3cnc4sc5c(c4c3=O)CCCC5)c(=O)c2C#N)cc(OC)c1OC
Result: 81.4

----------
# selectivity ratio values compiled below
- Assay procedure: Selectivity index, ratio of GI50 for human HeLa cells to MIC for active stage of Mycobacterium tuberculosis H37Ra ATCC 25177 infected in human THP1 cells
- Type: toxicity, cell-based
- Conditions: read-out: Selectivity Index
Please respond with just the number, no unit label.

Worked examples follow.
COc1cc(-c2nc(SCCCn3cnc4sc5c(c4c3=O)CCCC5)n(CCCn3cnc4sc5c(c4c3=O)CCCC5)c(=O)c2C#N)cc(OC)c1OC: 3
CCCCCCc1cc2c(=O)n(CCSc3nc(-c4cc(OC)c(OC)c(OC)c4)c(C#N)c(=O)[nH]3)cnc2s1: 4
CCCCCCCc1cc2c(=O)n(CCCSc3nc(-c4cc(OC)c(OC)c(OC)c4)c(C#N)c(=O)[nH]3)cnc2s1: 3

Task: State its selectivity ratio: CO[C@H]1/C=C/O[C@@]2(C)Oc3c(C)c(O)c4c(O)c(c(/C=N/N5CCN(C)CC5)c(O)c4c3C2=O)NC(=O)/C(C)=C\C=C\[C@H](C)[C@H](O)[C@@H](C)[C@@H](O)[C@@H](C)[C@H](OC(C)=O)[C@@H]1C
Result: 196
